# assay-target: Vhr1 (UniProt P40522)
# Sequence: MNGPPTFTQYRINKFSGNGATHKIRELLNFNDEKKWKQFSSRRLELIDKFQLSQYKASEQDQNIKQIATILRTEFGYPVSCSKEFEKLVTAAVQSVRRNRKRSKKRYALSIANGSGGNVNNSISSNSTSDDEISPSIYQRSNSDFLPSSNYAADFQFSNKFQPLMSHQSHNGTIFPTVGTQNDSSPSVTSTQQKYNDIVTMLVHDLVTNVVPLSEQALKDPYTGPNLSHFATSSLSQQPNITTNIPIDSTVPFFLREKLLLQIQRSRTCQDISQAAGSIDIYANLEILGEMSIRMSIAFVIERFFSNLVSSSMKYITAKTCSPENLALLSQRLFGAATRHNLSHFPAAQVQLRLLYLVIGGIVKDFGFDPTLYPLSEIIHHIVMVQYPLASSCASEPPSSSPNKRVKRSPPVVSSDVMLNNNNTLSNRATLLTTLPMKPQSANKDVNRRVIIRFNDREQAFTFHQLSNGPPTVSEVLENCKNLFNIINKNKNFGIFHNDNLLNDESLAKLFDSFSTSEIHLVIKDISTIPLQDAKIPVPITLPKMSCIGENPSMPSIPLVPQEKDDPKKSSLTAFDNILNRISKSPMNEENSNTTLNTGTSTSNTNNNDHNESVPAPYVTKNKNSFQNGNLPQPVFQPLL
# assay-protocol: PBM E-score (8-mer binding enrichment) (E-score (-0.5 to 0.5)); higher = stronger / more preferred TF binding
# protocol-conditions: protein concentration: 200 nM; construct: GST-full length
Over roughly 33,000 sequences, “E-score (-0.5 to 0.5)” has its median near -0.012; the highest 2% begin near 0.27. This excerpt belongs to a sample that is enriched for the highest values.
Assign class by PBM E-score: not lower than 0.1 means Yes; lower than 0.1 means No.

Hello, I need to know if `ATCATGAA` has measured PBM E-score not below 0.1. Thanks!
Yes

# bool: PBM E-score of `GACATGAC` >= 0.1
Yes

Check the entry `AAACAAGA` : does PBM E-score equal or exceed 0.1?
Yes

Hi team, for `AAGTTTGT` , is the recorded PBM E-score at or above 0.1?
No

# bool: PBM E-score of `AGACTCTC` >= 0.1
No

Hi, just wondering whether `CAACTCAG` shows PBM E-score of 0.1 or higher.
No

For this sequence, is measured PBM E-score 0.1 or higher? `ATCATGAC`
Yes

Could you verify whether the entry `CGACTCAC` shows PBM E-score of no less than 0.1?
Yes

Determine whether measured PBM E-score meets or exceeds 0.1 for `TGGTCTAA`
No

Tell me whether PBM E-score is at least 0.1 here: `CCACTCAC`
Yes

Please check the record `GCTCTGCA` and state if its PBM E-score is at or above 0.1.
No

Could you tell me if the measured PBM E-score of `CGACTCTA` reaches 0.1 or more?
Yes

Is the recorded value of PBM E-score equal to or greater than 0.1 for this sequence? `CAAGGGCG`
No

Is PBM E-score at least 0.1? Consider `AATGAGTG`
Yes

Dear colleague, could you confirm whether `ATCATGAG` has PBM E-score at or above 0.1?
Yes

Hello, I need to know if `AATGAGTC` has measured PBM E-score not below 0.1. Thanks!
Yes

State whether the measured PBM E-score reaches 0.1, counting equality as reaching it, for `GCACTCAC`
No

Is reported PBM E-score greater than or equal to 0.1 here: `ACAGGGAC`
No

# bool: PBM E-score of `CAACTCAC` >= 0.1
Yes

Record `CATGAGAG` ; criterion: PBM E-score no lower than 0.1. Met?
Yes

Hello, I need to know if `CGATTTAG` has measured PBM E-score not below 0.1. Thanks!
No

# check: PBM E-score of `CATGAGCC` is greater than or equal to 0.1
Yes
